method: amyloid nucleation score (Sup35N fusion, yeast selection) (log enrichment); library NNK1; higher = more nucleation; inactive = no reads after selection;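 further: zero at mode of non-aggregating sequences after 7 days selection at 30°C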
Below, each of the substances is paired with its reported amyloid nucleation score value.
Lab note: jot down the number only; don't add units.

>>> assay_value("TVGSIRRNHEVLWGTRILSG")
-1.69
>>> assay_value("AASKIIENIGHLC")
-0.337

Reported amyloid nucleation score for "KGLGRF" : what is it? -0.788

What do we get for "RILKMYTYVLTMADHVLNKS" ? 0.21

Field entry: "YQSLVMFMEPDSRVLRVCRA" 0.104

Try this substance next: "MGNLATRWFQR" -0.037

# repeat for "VTFFHFSQGR" 4.79
